Across several publications, the following pKi results were reported for Sodium- and chloride-dependent GABA transporter 1 (Mus musculus, UniProt P31648).
The read-out pKi is expressed as -log10 of concentration in moles per litre.

The following compounds have reported results that may help.
{"columns": ["Compound", "Measured on", "Reported value"],
 "data": [
  ["NCCC(C(=O)NCc1ccccc1Cl)N1CCC(=C(c2ccccc2)c2ccccc2)CC1 (configuration not stated)", "Sodium- and chloride-dependent GABA transporter 1 (Mus musculus, UniProt P31648)", 4.98],
  ["O=C(O)[C@H]1CNC[C@@H](CCN/N=C/c2ccc(-c3ccc(C(F)(F)F)cc3Cl)o2)C1 (racemic)", "Sodium- and chloride-dependent GABA transporter 1 (Mus musculus, UniProt P31648)", 6.21],
  ["CN1CC[C@H](CC/C=C/c2ccccc2-c2ccccc2)[C@@H](C(=O)O)C1 (racemic)", "Sodium- and chloride-dependent GABA transporter 1 (Mus musculus, UniProt P31648)", 4.85],
  ["NCCC(NCCC=C(c1ccccc1)c1ccccc1)C(=O)NCc1ccccc1 (configuration not stated)", "Sodium- and chloride-dependent GABA transporter 1 (Mus musculus, UniProt P31648)", 4.76],
  ["COc1ccc(C(C#CCN2CCCC(C(=O)O)C2)(c2ccc(OC)cc2)c2nccs2)cc1 (racemic)", "Sodium- and chloride-dependent GABA transporter 1 (Mus musculus, UniProt P31648)", 4.11]
]}

Exercise: Provide value of pKi for this record tested with Sodium- and chloride-dependent GABA transporter 1 (Mus musculus, UniProt P31648): O=C(O)C1CCCN(CCN/N=C/c2ccccc2-c2ccc(F)cc2F)C1 (configuration not stated)
Key: 7.45

###

Across several publications, the following pKi results were reported for Sodium- and chloride-dependent GABA transporter 1 (Mus musculus, UniProt P31648).
The read-out pKi is expressed as -log10 of concentration in moles per litre.

The following compounds have reported results that may help.
{"columns": ["Compound", "pKi"],
 "data": [
  ["COc1ccc(C(/C=C/CN2CCCC(C(=O)O)C2)(c2ccc(OC)cc2)c2ccsc2)cc1 (racemic)", 4.89],
  ["Cc1ccsc1C(=CCCN1CCC[C@@H]1[C@H](O)C(=O)O)c1sccc1C (racemic)", 6.99],
  ["CN1CC[C@H](CC/C=C/c2ccccc2Cc2ccccc2)[C@@H](C(=O)O)C1 (racemic)", 4.40]
]}

Exercise: Entry NCCC(NCCC=C(c1ccccc1)c1ccccc1)C(=O)NCc1ccc(F)cc1 (stereo not given) has what pKi?
Key: 4.64

Exercise: Entry COc1ccc(C(C#CCN2CCCC(C(=O)O)C2)(c2ccc(OC)cc2)c2ccc3sccc3c2)cc1 (racemic) has what pKi?
Key: 5.72

Exercise: Entry NCCC(C(=O)NCc1ccc(F)cc1)N1CCN(C(c2ccccc2)c2ccccc2)CC1 (stereo not given) has what pKi?
Key: 4.18

Exercise: Entry CN(CCC=C(c1ccccc1)c1ccccc1)C(CCN)C(=O)NCc1ccc(F)cc1 (stereo not given) has what pKi?
Key: 4.80

Exercise: Entry CN(CCC=C(c1ccccc1)c1ccccc1)C(CCN)C(=O)NCc1ccc(Cl)cc1 (stereo not given) has what pKi?
Key: 4.95

Exercise: Entry Cc1ccc(-c2ccccc2/C=N/NCCN2CCCC(C(=O)O)C2)c(C)c1 (stereo not given) has what pKi?
Key: 7.13

Exercise: Entry O=C(O)[C@H]1CNCC[C@H]1CCCC/C=C/c1ccccc1-c1ccccc1 (racemic) has what pKi?
Key: 4.56
